Carbonic anhydrase 5A, mitochondrial (Homo sapiens) Ki data
Sequence (P35218 whole entry): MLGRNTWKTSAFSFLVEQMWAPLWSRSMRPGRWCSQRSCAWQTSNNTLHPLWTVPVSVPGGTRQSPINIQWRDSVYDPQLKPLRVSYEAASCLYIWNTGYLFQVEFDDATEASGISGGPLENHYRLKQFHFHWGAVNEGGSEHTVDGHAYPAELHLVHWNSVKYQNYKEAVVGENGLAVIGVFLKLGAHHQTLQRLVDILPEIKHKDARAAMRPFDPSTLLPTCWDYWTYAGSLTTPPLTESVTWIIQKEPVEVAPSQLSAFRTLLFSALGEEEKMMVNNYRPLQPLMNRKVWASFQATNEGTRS
The figure you give is taken to be in nM; do not add the unit.

Data request: # Ki lookup, item NS(=O)(=O)c1ccc(NC(=O)Cc2ccccc2)cc1
Data returned: 6.7

Data request: # Ki lookup, item NS(=O)(=O)c1ccc(CCNC(=O)Cc2cccs2)cc1
Data returned: 10.2

Data request: # Ki lookup, item NS(=O)(=O)c1ccc(NC(=O)Cc2cccs2)cc1
Data returned: 7.2
